Values were extracted from patent US6908931B2.

- target-of-assay: human MT2 receptor (Homo sapiens, UniProt P49286)
- Construct: melatonin MT1 and MT2 receptors cDNA were individually subcloned into pcDNA3 and introduced into NIH-3T3 cells using Lipofectamine; expressed in transfected cells
- Sequence (P49286 1-362): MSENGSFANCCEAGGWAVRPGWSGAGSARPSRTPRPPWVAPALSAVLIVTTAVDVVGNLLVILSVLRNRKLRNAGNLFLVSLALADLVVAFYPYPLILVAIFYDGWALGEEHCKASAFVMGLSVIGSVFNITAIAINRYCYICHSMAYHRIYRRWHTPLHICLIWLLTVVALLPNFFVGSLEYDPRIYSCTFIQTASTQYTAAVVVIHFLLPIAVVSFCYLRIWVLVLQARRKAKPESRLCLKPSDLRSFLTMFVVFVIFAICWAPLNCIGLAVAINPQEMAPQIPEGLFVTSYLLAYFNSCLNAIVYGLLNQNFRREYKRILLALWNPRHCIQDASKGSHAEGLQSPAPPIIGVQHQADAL
- protocol-description: Melatonin receptor binding assay (MT2), 2-[125I]-iodomelatonin
- condition-summary: membrane homogenates of NIH-3T3 cells expressing MT2; 2-[125I]-iodomelatonin 0.2 nM; 37° C., 1 hour; read-out: MT2 IC50
endpoint-name: IC50

Example molecules with recorded IC50:
COc1cc2c(cc1OC)C(CCc1ccccc1)N(C=O)CC2 (centres unmarked) [Example 15]
< 100 nM
CCCC(=O)N1CCc2cc(OC)c(OC)cc2C1CC(c1ccccc1)c1ccccc1 (centres unmarked) [Example 4]
< 100 nM
COc1ccc(C(=O)N2CCc3ccc(OC)cc3C2CC(c2ccccc2)c2ccccc2)cc1 (centres unmarked) [Example 79]
100 to 1000 nM

Next:
Prompt: May I ask what IC50 has been recorded for COc1cc2c(cc1OC)C(CC(c1ccccc1)c1ccccc1)N(C(=O)c1ccco1)CC2 (centres unmarked) [Example 41] ?
Response: 100 to 1000 nM

---

Overview of reported IC50 across a group of compounds:
- target-of-assay: human MT2 receptor (Homo sapiens)
- Construct: melatonin MT1 and MT2 receptors cDNA were individually subcloned into pcDNA3 and introduced into NIH-3T3 cells using Lipofectamine; expressed in transfected cells
- protocol-description: Melatonin receptor binding assay (MT2), 2-[125I]-iodomelatonin
- condition-summary: membrane homogenates of NIH-3T3 cells expressing MT2; 2-[125I]-iodomelatonin 0.2 nM; 37° C., 1 hour; read-out: MT2 IC50

COc1cc2c(cc1OC)C(CC(c1ccccc1)c1ccccc1)N(C(=O)C1CCC1)CC2 (stereo not shown) [Example 43]
100 to 1000 nM
COc1ccc(C(CC2c3cc(OC)c(OC)cc3CCN2C(C)=O)c2ccc(OC)cc2)cc1 (stereo not shown) [Example 25]
100 to 1000 nM
COc1cc2c(cc1Br)CCN(C(=O)c1ccc(C)cc1)C2CC(c1ccccc1)c1ccccc1 (stereo not shown) [Example 39]
100 to 1000 nM

Next:
Prompt: May I ask what IC50 has been recorded for CCC(=O)N1CCc2cc3c(cc2C1CCc1ccc(F)cc1)OCO3 (stereo not shown) [Example 105] ?
Response: < 100 nM

---

- target-of-assay: human MT2 receptor (Homo sapiens, UniProt P49286)
- Construct: melatonin MT1 and MT2 receptors cDNA were individually subcloned into pcDNA3 and introduced into NIH-3T3 cells using Lipofectamine; expressed in transfected cells
- protocol-description: Melatonin receptor binding assay (MT2), 2-[125I]-iodomelatonin
- condition-summary: membrane homogenates of NIH-3T3 cells expressing MT2; 2-[125I]-iodomelatonin 0.2 nM; 37° C., 1 hour; read-out: MT2 IC50
pIC50: −log10 of the molar value.
endpoint-name: pIC50

Example compounds with recorded pIC50:
COc1cc2c(cc1Br)CCN(C(=O)c1ccco1)C2CC(c1ccccc1)c1ccccc1 (stereo not shown)
6.00 to 7.00
CC(C)COC(=O)N1CCc2cc3c(cc2C1CCc1ccc(Cl)cc1)OCO3 (stereo not shown)
6.00 to 7.00
CCCCCCC(=O)N1CCc2cc(OC)c(OC)cc2C1CC(c1ccccc1)c1ccccc1 (stereo not shown)
6.00 to 7.00
O=C(CCl)N1CCc2cc3c(cc2C1CCc1ccc(Cl)cc1)OCO3 (stereo not shown)
> 7.00
COc1ccc(C(=O)N2CCc3ccc(OC)cc3C2CCc2ccc(F)cc2)cc1 (stereo not shown)
6.00 to 7.00

Next:
Prompt: Hi! What's the reported pIC50 for CCCCCCC(=O)N1CCc2cc(Br)c(OC)cc2C1CC(c1ccccc1)c1ccccc1 (stereo not shown) on human MT2 receptor (Homo sapiens, UniProt P49286)?
Response: > 7.00
